Attribution: the supplement of paper PMC7877785

assay: self-splicing fitness, log relative to wild type (ln ratio); higher = more splicing; Tetrahymena group I intron in knt gene, E. coli kanamycin selection, DiMSum; sequences stand for … in CUCUCU…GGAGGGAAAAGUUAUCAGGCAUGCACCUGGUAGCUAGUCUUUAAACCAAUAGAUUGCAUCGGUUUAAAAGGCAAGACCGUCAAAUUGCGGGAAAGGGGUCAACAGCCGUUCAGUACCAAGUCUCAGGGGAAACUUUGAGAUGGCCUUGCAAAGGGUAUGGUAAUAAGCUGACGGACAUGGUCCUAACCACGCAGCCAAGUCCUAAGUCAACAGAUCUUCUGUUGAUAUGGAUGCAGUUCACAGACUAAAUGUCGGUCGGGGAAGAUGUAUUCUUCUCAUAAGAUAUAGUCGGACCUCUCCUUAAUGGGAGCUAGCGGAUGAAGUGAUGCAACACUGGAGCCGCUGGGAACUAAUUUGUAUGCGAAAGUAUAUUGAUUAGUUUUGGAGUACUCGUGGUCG; details: 37 °C;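 also: selection with 25 µg/mL kanamycin versus none on LB agar overnight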
Assign rule met whenever self-splicing fitness (ln) does not fall below -3; assign rule not met whenever it does.

GCUCAGCAAUAUUACGGUUA    rule met
CGUAAGCAAUAUUACGGUUU    rule met
CUACAGCAAUAUUACGUAGG    rule met
GACAAGCAAUAUUACGAGUA    rule met
CACAAGCAAUAUUACGAAAU    rule not met
CCCGAGCAAUAUUACGGCGA    rule met
GGAGAGCAAUAUUACGUGGG    rule met
GGCCAGCAAUAUUACGAGCC    rule met
CAGGAGCAAUAUUACGCUGA    rule not met
UCACAGCAAUAUUACGCUUU    rule not met
GGGCAGCAAUAUUACGUUCU    rule met
AGUAAGCAAUAUUACGGGAA    rule met
CCCAAGCAAUAUUACGUAUA    rule not met
UGCCAGCAAUAUUACGAGGA    rule met
GCUCAGCAAUAUUACGCAGC    rule met
UAUCAGCAAUAUUACGCUCA    rule met

###

Let's look at some sequences and their measured self-splicing fitness (ln).
assay: self-splicing fitness, log relative to wild type (ln ratio); higher = more splicing; Tetrahymena group I intron in knt gene, E. coli kanamycin selection, DiMSum; sequences stand for … in CUCUCU…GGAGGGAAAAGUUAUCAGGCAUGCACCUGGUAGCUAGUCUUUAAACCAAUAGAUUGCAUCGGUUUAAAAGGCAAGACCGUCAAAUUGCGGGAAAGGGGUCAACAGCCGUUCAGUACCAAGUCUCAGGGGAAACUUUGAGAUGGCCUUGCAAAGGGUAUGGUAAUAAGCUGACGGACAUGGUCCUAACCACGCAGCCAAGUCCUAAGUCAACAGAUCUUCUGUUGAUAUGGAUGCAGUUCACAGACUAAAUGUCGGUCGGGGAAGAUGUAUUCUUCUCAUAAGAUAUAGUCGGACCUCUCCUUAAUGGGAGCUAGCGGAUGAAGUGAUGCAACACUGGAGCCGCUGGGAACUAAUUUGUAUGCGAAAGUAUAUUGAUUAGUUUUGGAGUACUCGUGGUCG; details: 37 °C
testReadout: self-splicing fitness (ln)

CUGUAGCAAUAUUACGAGGC    -3.04
UCGGAGCAAUAUUACGACGA    -1.32
GCCCAGCAAUAUUACGUGCU    -2.88
AAAUAGCAAUAUUACGCCUA    -0.23
UCUGAGCAAUAUUACGCACU    -2.1
GCUGAGCAAUAUUACGGCGC    -0.0749
UCUAAGCAAUAUUACGAGAU    -0.699
AUUGAGCAAUAUUACGAUCG    -1.04

###

assay: self-splicing fitness, log relative to wild type (ln ratio); higher = more splicing; Tetrahymena group I intron in knt gene, E. coli kanamycin selection, DiMSum; sequences stand for … in CUCUCU…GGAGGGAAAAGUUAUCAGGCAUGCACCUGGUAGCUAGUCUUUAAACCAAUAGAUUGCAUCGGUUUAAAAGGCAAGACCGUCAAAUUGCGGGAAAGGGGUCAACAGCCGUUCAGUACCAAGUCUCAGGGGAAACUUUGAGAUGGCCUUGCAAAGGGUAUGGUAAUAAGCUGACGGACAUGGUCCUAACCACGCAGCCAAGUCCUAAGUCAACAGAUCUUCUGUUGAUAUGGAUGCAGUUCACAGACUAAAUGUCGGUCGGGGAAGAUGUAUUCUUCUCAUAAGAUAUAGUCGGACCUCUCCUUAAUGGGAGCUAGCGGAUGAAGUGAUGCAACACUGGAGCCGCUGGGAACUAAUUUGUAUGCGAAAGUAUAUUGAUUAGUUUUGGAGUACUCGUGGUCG; details: 30 °C
// map self-splicing fitness (ln) onto a label; ranges interval 1 = under -3, interval 2 = from -3 up to -2, interval 3 = -2 and over

UCGCAGCAAUAUUACGAGAG    interval 1
UAGAAGCAAUAUUACGUCUU    interval 3
CUGCAGCAAUAUUACGUUCU    interval 2
AAUCAGCAAUAUUACGAUAA    interval 3
UGUUAGCAAUAUUACGCAUU    interval 2
UGCUAGCAAUAUUACGGGCG    interval 3
AUGCAGCAAUAUUACGCCUU    interval 3
ACUCAGCAAUAUUACGAGGU    interval 1
CUCCAGCAAUAUUACGGGAG    interval 1
GCCUAGCAAUAUUACGGGGU    interval 1
CAAAAGCAAUAUUACGUUUU    interval 1
ACUUAGCAAUAUUACGCUUG    interval 3
GAGCAGCAAUAUUACGCGUA    interval 3

###

assay: self-splicing fitness, log relative to wild type (ln ratio); higher = more splicing; Tetrahymena group I intron in knt gene, E. coli kanamycin selection, DiMSum; sequences stand for … in CUCUCU…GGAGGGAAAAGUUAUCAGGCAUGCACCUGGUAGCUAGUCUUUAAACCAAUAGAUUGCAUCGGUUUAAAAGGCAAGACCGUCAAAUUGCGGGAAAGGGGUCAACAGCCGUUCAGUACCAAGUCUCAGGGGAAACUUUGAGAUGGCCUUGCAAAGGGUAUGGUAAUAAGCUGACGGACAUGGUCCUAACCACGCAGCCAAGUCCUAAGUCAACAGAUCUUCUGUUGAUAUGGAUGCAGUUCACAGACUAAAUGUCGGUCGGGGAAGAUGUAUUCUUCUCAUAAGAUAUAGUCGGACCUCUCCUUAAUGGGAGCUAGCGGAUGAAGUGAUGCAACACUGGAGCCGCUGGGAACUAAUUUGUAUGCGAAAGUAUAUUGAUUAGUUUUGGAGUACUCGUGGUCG; conditions: 30 °C
testReadout: self-splicing fitness (ln)

CUAAAGCAAUAUUACGCAAG    -1.11
GCGAAGCAAUAUUACGAGAU    -2.89
UAAAAGCAAUAUUACGUUGA    -2.41
ACAUAGCAAUAUUACGAACU    -0.612
AUAAAGCAAUAUUACGCAGG    -1.32
UUUCAGCAAUAUUACGCUAA    -1.25
GCGGAGCAAUAUUACGGGUU    -4.22
CCUGAGCAAUAUUACGAGCG    -2.57
GCAUAGCAAUAUUACGCUCG    -0.827
AAACAGCAAUAUUACGACGC    -1.43
GCCUAGCAAUAUUACGGAUC    -0.351
AAGGAGCAAUAUUACGGAGA    -3.62
GCGUAGCAAUAUUACGUCCG    -2.52
CCCGAGCAAUAUUACGUCAC    -2.9
AAAAAGCAAUAUUACGAGUU    -1.33
UAGUAGCAAUAUUACGGGUG    -0.96
AGGAAGCAAUAUUACGCCCU    -2.95
UCGGAGCAAUAUUACGAAGG    -2.58
GCGGAGCAAUAUUACGUUCA    -0.896
GAUCAGCAAUAUUACGGUUC    -2.83
GGGAAGCAAUAUUACGUCUU    -0.577
CCGUAGCAAUAUUACGAGCG    -0.86
UACAAGCAAUAUUACGGGGC    -5.04
AGCAAGCAAUAUUACGUACU    -0.47
GCACAGCAAUAUUACGCGUG    -3.87
UCUUAGCAAUAUUACGCUAA    -2.71
AUUUAGCAAUAUUACGACUG    -2
UCUUAGCAAUAUUACGGGUC    -3.28
GCAAAGCAAUAUUACGAGUU    -2.47
GACGAGCAAUAUUACGCCUA    -0.714
GCUUAGCAAUAUUACGAAAU    -0.692
GGCAAGCAAUAUUACGUCAC    -3.31
GAAGAGCAAUAUUACGAAUU    -3.24
AAAAAGCAAUAUUACGUACU    0.142

###

assay: self-splicing fitness, log relative to wild type (ln ratio); higher = more splicing; Tetrahymena group I intron in knt gene, E. coli kanamycin selection, DiMSum; sequences stand for … in CUCUCU…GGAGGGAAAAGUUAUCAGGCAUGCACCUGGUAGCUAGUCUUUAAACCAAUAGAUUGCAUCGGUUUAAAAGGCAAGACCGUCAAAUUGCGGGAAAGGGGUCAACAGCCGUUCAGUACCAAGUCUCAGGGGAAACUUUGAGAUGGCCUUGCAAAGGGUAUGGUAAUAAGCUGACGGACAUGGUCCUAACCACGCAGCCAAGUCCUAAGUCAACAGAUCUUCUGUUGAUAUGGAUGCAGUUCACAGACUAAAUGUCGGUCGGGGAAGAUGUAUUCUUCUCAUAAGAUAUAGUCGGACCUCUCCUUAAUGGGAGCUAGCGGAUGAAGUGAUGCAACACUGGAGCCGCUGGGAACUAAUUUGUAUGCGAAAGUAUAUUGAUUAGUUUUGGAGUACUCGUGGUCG; conditions: 30 °C
testReadout: self-splicing fitness (ln)

CAAGAGCAAUAUUACGUAUG    -3.02
UUCCAGCAAUAUUACGAUUG    -2.03
CGUAAGCAAUAUUACGUACG    -3.57
GACCAGCAAUAUUACGAUCU    -0.841
AAGGAGCAAUAUUACGACGU    -1.88
AAAGAGCAAUAUUACGUUAU    -3.71
CGACAGCAAUAUUACGAUAG    -0.383
GUCGAGCAAUAUUACGGAGG    -3.76
UGUAAGCAAUAUUACGCCGG    -1.46
GCGAAGCAAUAUUACGGUGC    -3.75
CGGCAGCAAUAUUACGAUCU    -0.274
UCCAAGCAAUAUUACGCAAC    -4.2
GUGCAGCAAUAUUACGGUCU    -0.887
CAUCAGCAAUAUUACGAGAU    -3.84
CAGCAGCAAUAUUACGUAUG    -2.19
AUUCAGCAAUAUUACGAGUC    -3.54
